pEC50 values, listed per item
# Tested on: Human immunodeficiency virus 1
# ASSAY_NOTES: Antiviral activity against HIV1 harboring reverse transcriptase K103N mutant infected in human […] cells assessed as protection against virus-induced cytopathic effect measured on day 5 post infection by MTT assay
# Format: functional, cell-based
# SETUP_CONDITIONS: Human immunodeficiency virus 1, 120 h
pEC50: −log10 of the molar value.
MEASUREMENT_KIND: pEC50

| COMPOUND | MEASUREMENT_KIND | READING_QUALIFIER | RESULT_NUMBER |
| --- | --- | --- | --- |
| Cc1cc(C)cc(S(=O)(=O)c2c(C(=O)NC(C)C(=O)NCc3ccncc3)[nH]c3ccc(Cl)cc23)c1 (racemic) | pEC50 | = | 8.72 |
| Cc1cc(C)cc(S(=O)(=O)c2c(C(=O)NC(C)C(=O)NCc3ccco3)[nH]c3ccc(Cl)cc23)c1 (racemic) | pEC50 | = | 8.72 |
| Cc1ccnc2c1NC(=O)c1cccnc1N2C1CC1 | pEC50 | < | 5.43 |
| Cc1cc(C)cc(S(=O)(=O)c2c(C(=O)NCC(=O)NCc3ccncn3)[nH]c3ccc(Cl)cc23)c1 | pEC50 | = | 7.71 |
| Cc1cc(C)cc(S(=O)(=O)c2c(C(=O)NCC(=O)NC(C)c3ccccc3F)[nH]c3ccc(Cl)cc23)c1 (racemic) | pEC50 | = | 6.41 |
| Cc1cc(C)cc(S(=O)(=O)c2c(C(=O)NCC(=O)N[C@H](C)c3ccncc3)[nH]c3ccc(Cl)cc23)c1 | pEC50 | = | 6.82 |
| Cc1cc(C)cc(S(=O)(=O)c2c(C(=O)Nc3ccnc(C#N)c3)[nH]c3ccc(Cl)cc23)c1 | pEC50 | = | 9.15 |
| Cc1cc(C)cc(S(=O)(=O)c2c(C(=O)NC(C)c3ccco3)[nH]c3ccc(Cl)cc23)c1 (racemic) | pEC50 | = | 6.96 |
| Cc1cc(C)cc(S(=O)(=O)c2c(C(=O)N[C@@H](C)C(=O)N[C@@H](C)c3ccncc3)[nH]c3ccc(Cl)cc23)c1 | pEC50 | = | 8.89 |
| Cc1cc(C)cc(S(=O)(=O)c2c(C(=O)N[C@H](C)C(=O)NCc3ccncn3)[nH]c3ccc(Cl)cc23)c1 | pEC50 | = | 7.12 |
| Cc1cc(C)cc(S(=O)(=O)c2c(C(=O)NCc3n[nH]c4ccccc34)[nH]c3ccc(Cl)cc23)c1 | pEC50 | = | 9.22 |
| Cc1cc(C)cc(S(=O)(=O)c2c(C(=O)N[C@H](C)C(=O)NCc3ccncc3)[nH]c3ccc(Cl)cc23)c1 | pEC50 | = | 6.94 |
| Cc1cc(C)cc(S(=O)(=O)c2c(C(=O)NC(C)c3cc(F)cc(F)c3)[nH]c3ccc(Cl)cc23)c1 (racemic) | pEC50 | = | 8.92 |
| Cc1cc(C)cc(S(=O)(=O)c2c(C(=O)NCC(=O)NC(C)c3ccncc3)[nH]c3ccc(Cl)cc23)c1 (racemic) | pEC50 | = | 7.42 |
| Cc1cc(C)cc(S(=O)(=O)c2c(C(=O)NC(C)C(=O)NC(C)c3ccccc3)[nH]c3ccc(Cl)cc23)c1 (racemic) | pEC50 | = | 8.72 |
| Cc1cc(C)cc(S(=O)(=O)c2c(C(=O)N[C@@H](C)c3ccccc3F)[nH]c3ccc(Cl)cc23)c1 | pEC50 | = | 6.99 |
